Molecular target: NHERF2_2, Q15599
Sequence (Q15599 142-238): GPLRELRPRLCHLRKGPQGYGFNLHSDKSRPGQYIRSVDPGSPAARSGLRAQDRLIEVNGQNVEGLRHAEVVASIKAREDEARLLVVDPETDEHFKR
Assay: holdup assay
Design: key: below the threshold = too weak to quantify, mostly under pKd 3.1 to 4
Details: plain residues with an end cap or a label only (N-terminal biotin on a linker: ado-ado)
Please use T whenever pKd is not below 5, and F whenever it is.

Is reported pKd greater than or equal to 5 here: TNSKQGETTV [FZD1, Q9UP38] F

Is reported pKd greater than or equal to 5 here: AKADAQESRL [PLCB2, Q00722] T

Is reported pKd greater than or equal to 5 here: GTMFLRETSL [GUCY1A2, P33402] F

Is reported pKd greater than or equal to 5 here: GNDPDRGTSI [GRID2, O43424] F

Is reported pKd greater than or equal to 5 here: PLPPEEESWV [GAS2L2, Q8NHY3] F

Reference for the values: paper PMC9482650
